Ref: patent EP0241395A2

- Tested on: groupe de huit goûteurs expérimentés
- measurement.notes: Sweetening power judged by a panel of eight experienced tasters against a sucrose reference solution
- Format: in vivo
- run.conditions: Table II; weight basis, relative to a 2 % sucrose solution
Threshold 20000: Pouvoir édulcorant strictly smaller gives Yes, otherwise No.

Would you kindly verify if Pouvoir édulcorant of `C[C@H](NC(=Nc1cc(Cl)cc(Cl)c1)NCC(=O)O)c1ccccc1` is strictly less than 20000?
No

Would you kindly verify if Pouvoir édulcorant of `C[C@H](NC(=Nc1ccc(Cl)c(Cl)c1)NCC(=O)O)c1ccccc1` is strictly less than 20000?
Yes

Would you kindly verify if Pouvoir édulcorant of `C[C@H](NC(=Nc1cccc(Br)c1)NCC(=O)O)c1ccccc1` is strictly less than 20000?
No

Would you kindly verify if Pouvoir édulcorant of `CC1(NC(=Nc2ccc(C#N)cc2)NCC(=O)O)CCCCC1` is strictly less than 20000?
Yes

Would you kindly verify if Pouvoir édulcorant of `N#CC(C#N)=C(NCC(=O)O)Nc1cc(Cl)cc(Cl)c1` is strictly less than 20000?
Yes

###

- Tested on: groupe de huit goûteurs expérimentés
- measurement.notes: Sweetening power judged by a panel of eight experienced tasters against a sucrose reference solution
- Assay type: in vivo
- run.conditions: Table II; weight basis, relative to a 2 % sucrose solution
measure.name: Pouvoir édulcorant
Lab note: jot down the number only; don't add units.

Which Pouvoir édulcorant reading was recorded for the molecule `C[C@H](NC(=Nc1ccc(O)cc1)NCC(=O)O)c1ccccc1` ?
400

Which Pouvoir édulcorant reading was recorded for the molecule `CCC(C)(C)NC(=Nc1ccc(C#N)cc1)NCC(=O)O` ?
300

Which Pouvoir édulcorant reading was recorded for the molecule `CSc1ccc(N=C(NCC(=O)O)N[C@@H](C)c2ccccc2)cc1` ?
1200

Which Pouvoir édulcorant reading was recorded for the molecule `N#Cc1ccc(N=C(NCC(=O)O)N2CCCCC2)cc1` ?
200

###

- Test system: groupe de huit goûteurs expérimentés
- measurement.notes: Sweetening power judged by a panel of eight experienced tasters against a sucrose reference solution
- Format: in vivo
- run.conditions: Table II; weight basis, relative to a 2 % sucrose solution
measure.name: Pouvoir édulcorant
Lab note: jot down the number only; don't add units.

Solved entries:
CC(C)N(C)C(=Nc1ccc(C#N)cc1)NCC(=O)O [Exemple 32] = 80
CN(Cc1ccccc1)C(=Nc1cc(Cl)cc(Cl)c1)NCC(=O)O [Exemple 31] = 20000

Which Pouvoir édulcorant reading was recorded for the compound C[C@H](NC(=Nc1ccc(C#N)cc1)NCC(=O)O)c1ccccc1 [Exemple 14] ?
28000

Which Pouvoir édulcorant reading was recorded for the compound O=C(O)CNC(=Nc1cc(Cl)cc(Cl)c1)Nc1cc(Cl)cc(Cl)c1 [Exemple 81] ?
1000

Which Pouvoir édulcorant reading was recorded for the compound C[C@H](NC(=Nc1ccc(Cl)cc1)NCC(=O)O)c1ccccc1 [Exemple 13] ?
3000

Which Pouvoir édulcorant reading was recorded for the compound N#Cc1cccc(N=C(NCC(=O)O)NCC2CCCCC2)c1 [Exemple 56] ?
5000

Which Pouvoir édulcorant reading was recorded for the compound Cc1ccc(N=C(NCC(=O)O)N[C@@H](C)c2ccccc2)cc1 [Exemple 12] ?
800

Which Pouvoir édulcorant reading was recorded for the compound C[C@@H](NC(=Nc1ccc(C#N)cc1)NC1CCCCC1)C(=O)O [Exemple 85] ?
100
